# Tested on: SW982
# MEASUREMENT PROTOCOL: relative viability vs DMSO control (72 h) (fraction); higher = more viable cells
# ASSAY CONDITIONS: 0.04115 µM
# note: exactly 1 is not below, so it is FALSE; use TRUE for relative viability strictly under it

Please review the following examples before continuing.
COMPOUND | TESTED SYSTEM | LABEL VALUE
COC(=O)[C@@]1(O)C[C@H]2O[C@]1(C)n1c3ccccc3c3c4c(c5c6ccccc6n2c5c31)C(=O)NC4 [K-252a] | SW982 | TRUE
COc1cc(OC)c(/C=C/S(=O)(=O)Cc2ccc(OC)c(NCC(=O)O)c2)c(OC)c1 [Rigosertib] | SW982 | FALSE
CC1(C)CC=C(c2nc(C3CC(C)(C)OC(C)(C)C3)ccc2NC(=O)c2nc(C#N)c[nH]2)CC1 [Edicotinib] | SW982 | FALSE

Does the reported relative viability of the following compound sit strictly below 1? COCCNc1cc(NC(=O)N2CCCc3cc(CN4CCN(C)CC4=O)c(C=O)nc32)ncc1C#N [Roblitinib]
FALSE

Provenance of the data: the supplement of paper PMC10883282
